Where do the numbers come from? From patent US20120014941A1.

# Test system: T1, recombinant human Bv8 (PeproTech) (human, UniProt Q9HC23-2 28-108, biotinylated (Sulfo-NHS-LC-biotin) in the two competition ELISAs with coated antibody)
# T1 construct: Bought protein; also called HuBv8; prokineticin-2
# T1 sequence (looked up): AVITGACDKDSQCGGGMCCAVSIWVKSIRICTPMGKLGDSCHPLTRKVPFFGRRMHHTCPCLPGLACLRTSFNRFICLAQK
# Measurement description: competitive ELISA: antibody in serial dilution mixed with biotinylated human Bv8 (57 pM) and put on plate coated with mouse 2G9 IgG1 (m5, the competitor); streptavidin-HRP, OD 450/620; four-parameter fit
Value type: pIC50
Reminder that pIC50 means the negative base-10 logarithm of the concentration expressed in mol/L.

stdin: pIC50 lookup needed for h2G9.K4G1.v19 IgG (antibody, V domains shown, Variable domains only; IgG, constant regions not described; claims 6 and 7); also called humanized 2G9 variant 19) VH: EVQLVQSGAEVKKPGASVKVSCKASGYSLTNYDMHWVRQAPGQGLEWIGYIHSYSGSTLYNQKFKGRVTITVDKSTSTAYLELSSLRSEDTAVYYCARDSNYGEAYAMDYWGQGTLVTVSS VL: DIVMTQSPDSLAVSLGERATINCKASQSVDYSGDSYMNWYQQKPGQPPKLLIYAASNLESGVPDRFSGSGSGTDFTLTISSLQAEDVAVYYCQQINEDPFTFGQGTKVEIKR , thanks.
stdout: 10.85
